Hello, the source for this data is ChEMBL document CHEMBL1201862, in case you need it.

# System: T47D
# EXPERIMENTAL DETAILS: NCI tumour cell line growth inhibition, 48 h
Activity calls are given as the source filed them. No stated cut-off is given here; in the data, active = GI50 up to about 1.1 µM and inactive = higher.
MEASUREMENT TYPE: GI50

1) O=C(O)c1ccc(NS(=O)(=O)Cc2ccccc2)cc1: > 100 µM (inactive)

GET /value?item= "CN(C)CCCNc1nnc(NCCCN(C)C)c2c(=O)c3sccc3[nH]c12" &field=GI50 returns 19.4 µM (inactive)

GI50 for COc1cc2c3cc1Oc1c(OC)c(OC)cc4c1C(Cc1ccc(O)c(c1)Oc1ccc(cc1)CC3N(C)CC2)CN(C)C4 (stereo unspecified) is 22.1 µM (inactive)

GI50 measured on "CCOC(=O)CCc1c(C)nc2c(C)c3c([nH]c4ccc(Cl)cc43)c(C)c2c1O" = 14.8 µM (inactive)

Query "Cc1ccc(/C(C#N)=C/c2cccc([N+](=O)[O-])c2)cc1" yields GI50 of > 100 µM (inactive)

Briefly, GI50 measured for "Cc1nc2c(=O)n3c4c(cccc4c2o1)CCC3" : > 100 µM (inactive)

* * *

# System: SR
# EXPERIMENTAL DETAILS: NCI tumour cell line growth inhibition, 48 h
Calls of active or inactive are those of the source. No stated cut-off is given here; in the data, active = GI50 up to about 1.1 µM and inactive = higher.
MEASUREMENT TYPE: GI50

Below, 3 compounds whose answers are already recorded.
1. O=C1OC(=O)C2C3CCC(O3)C12 (stereo unspecified): > 100 µM (inactive)
2. COc1cc2[nH]c3c(c2cc1OC)CCN[C@@]31CC[C@@]2(CC3c4c(cc(OC)c(O)c42)CCN3C)C[C@@H]1OC (stereo partly specified): 12.5 µM (inactive)
3. CC(N/N=C(\S)N1CCN(c2ccccn2)CC1)c1cccc[n+]1[O-] (stereo unspecified): 4.58 µM (inactive)

Short answer on SR for COC1CC(OC)C2OC(c3ccccc3)OCC2O1 (stereo unspecified) , GI50: > 100 µM (inactive)

GI50 of CN1CCc2cc3c(c4c2C1C(O)c1ccccc1-4)OCO3 (stereo unspecified) , assay on SR, is 4.6 µM (inactive)

For the compound "CC(CCC(=O)O)(c1ccc(O)cc1)c1ccc(O)cc1" , the measured GI50 on SR was > 100 µM (inactive)

* * *

Parameter: GI50. Scope: all listed entries.
# Test system: HOP-92
# EXPERIMENTAL DETAILS: NCI tumour cell line growth inhibition, 48 h
Activity calls are given as the source filed them. No stated cut-off is given here; in the data, active = GI50 up to about 1.1 µM and inactive = higher.

Completed entries (count: 3):
1) FC(F)(F)c1ccc2nc(Nc3ccc(Cl)c(Cl)c3)c(-c3ccccc3)nc2c1: 46.7 µM (inactive)
2) Cc1nc2ccc(S(=O)(=O)Nc3ccccc3Cl)cc2c(=O)n1NC(=O)CNc1ccccc1Cl: > 100 µM (inactive)
3) COc1cc(C2C(=O)C(Cl)N2Nc2nc(C)cc(O)n2)cc(OC)c1OC (stereo not drawn): 16.9 µM (inactive)

// switching to the query molecule
So, O=c1n(-c2ccccc2)c(=O)n2n1C1Cc3ccccc3C12 (stereo not drawn) ? Its GI50 was > 100 µM (inactive)

* * *

# GI50 per entry
# Test system: NCI-H460
# EXPERIMENTAL DETAILS: NCI tumour cell line growth inhibition, 48 h
Active and inactive are the calls of the source. Rule as the data show it: active = GI50 up to about 1.1 µM and inactive = higher.

Some compounds with known GI50 results, for comparison:
1. c1ccc2c(c1)CCc1c-2n(CCN2CCCCC2)c2ccccc12: 15.6 µM (inactive)
2. C=C(C)[C@@H]1CC[C@]2(C(=O)O)CC[C@]3(C)[C@H](CCC4[C@@]5(C)CC[C@H](C(=O)/C=C/c6ccc(O)c(O)c6)C(C)(C)[C@@H]5CC[C@]43C)[C@@H]12 (some centres undefined): 2.81 µM (inactive)
3. CN1C(c2ccccc2)CS(=O)(=O)CS1(=O)=O (centres undefined): > 100 µM (inactive)

For "Oc1c2cc(Cl)cc1COCc1cc(Cl)cc(c1O)COCc1cc(Cl)cc(c1O)COC2" the compound record lists GI50 as 22.9 µM (inactive)

Quick note, GI50 for "CS(=O)(=O)CC(=O)c1ccccc1" landed at > 100 µM (inactive)
